Reported Activity values follow for various compounds
SUBJECT OF TEST: Toll-like receptor 1/2 (Mus musculus) (UniProt Q9QUN7+Q9EPQ1)
EXPERIMENT DESCRIPTION: Agonist activity at TLR1/TLR2 in wild type C57BL/6J mouse macrophages assessed as stimulation of TNF alpha release measured for 4 hrs by ELISA based assay relative to diprovocim-1
Type: cell-based
Design: concentration or dose not given beside the values
STATED CONDITIONS: Macrophage, filed as agonist
QUANTITY KIND: Activity (%)

>  <CHEMICAL SMILES>
CC(C)(C)OC(=O)c1ccc(C(=O)NCCOCCCCCCCCCCCCNC(=O)[C@@H]2CN(C(=O)c3ccc(C(=O)N4C[C@@H](C(=O)N[C@H]5C[C@@H]5c5ccccc5)[C@H](C(=O)N[C@H]5C[C@@H]5c5ccccc5)C4)cc3)C[C@H]2C(=O)N[C@H]2C[C@@H]2c2ccccc2)cc1

>  <REPORTED RESULT>
160

$$$$
>  <CHEMICAL SMILES>
CC(C)(C)OC(=O)N1CCC[C@H]1C(=O)OCCCCCCCCCCCCNC(=O)[C@@H]1CN(C(=O)c2ccc(C(=O)N3C[C@@H](C(=O)N[C@H]4C[C@@H]4c4ccccc4)[C@H](C(=O)N[C@H]4C[C@@H]4c4ccccc4)C3)cc2)C[C@H]1C(=O)N[C@H]1C[C@@H]1c1ccccc1

>  <REPORTED RESULT>
100

$$$$
>  <CHEMICAL SMILES>
N#CCC(=O)OCCCCCCCCCCCCNC(=O)[C@@H]1CN(C(=O)c2ccc(C(=O)N3C[C@@H](C(=O)N[C@H]4C[C@@H]4c4ccccc4)[C@H](C(=O)N[C@H]4C[C@@H]4c4ccccc4)C3)cc2)C[C@H]1C(=O)N[C@H]1C[C@@H]1c1ccccc1

>  <REPORTED RESULT>
120

$$$$
>  <CHEMICAL SMILES>
C[C@H](NC(=O)OC(C)(C)C)C(=O)OCCCCCCCCCCCCNC(=O)[C@@H]1CN(C(=O)c2ccc(C(=O)N3C[C@@H](C(=O)N[C@H]4C[C@@H]4c4ccccc4)[C@H](C(=O)N[C@H]4C[C@@H]4c4ccccc4)C3)cc2)C[C@H]1C(=O)N[C@H]1C[C@@H]1c1ccccc1

>  <REPORTED RESULT>
200

$$$$
>  <CHEMICAL SMILES>
CC(C)(C)OC(=O)Nc1ccc(C(=O)OCCCCCCCCCCCCNC(=O)[C@@H]2CN(C(=O)c3ccc(C(=O)N4C[C@@H](C(=O)N[C@H]5C[C@@H]5c5ccccc5)[C@H](C(=O)N[C@H]5C[C@@H]5c5ccccc5)C4)cc3)C[C@H]2C(=O)N[C@H]2C[C@@H]2c2ccccc2)cc1

>  <REPORTED RESULT>
540

$$$$
>  <CHEMICAL SMILES>
CC(C)(C)OC(=O)c1ccc(C(=O)NCC(=O)OCCCCCCCCCCCCNC(=O)[C@@H]2CN(C(=O)c3ccc(C(=O)N4C[C@@H](C(=O)N[C@H]5C[C@@H]5c5ccccc5)[C@H](C(=O)N[C@H]5C[C@@H]5c5ccccc5)C4)cc3)C[C@H]2C(=O)N[C@H]2C[C@@H]2c2ccccc2)cc1

>  <REPORTED RESULT>
130

$$$$
>  <CHEMICAL SMILES>
CC(C)(C)OC(=O)NCC(=O)NCCCCCCCCCCCCNC(=O)[C@@H]1CN(C(=O)c2ccc(C(=O)N3C[C@@H](C(=O)N[C@H]4C[C@@H]4c4ccccc4)[C@H](C(=O)N[C@H]4C[C@@H]4c4ccccc4)C3)cc2)C[C@H]1C(=O)N[C@H]1C[C@@H]1c1ccccc1

>  <REPORTED RESULT>
90

$$$$
>  <CHEMICAL SMILES>
O=C(O)CCCCCCCCCCCNC(=O)[C@@H]1CN(C(=O)c2ccc(C(=O)N3C[C@@H](C(=O)N[C@H]4C[C@@H]4c4ccccc4)[C@H](C(=O)N[C@H]4C[C@@H]4c4ccccc4)C3)cc2)C[C@H]1C(=O)N[C@H]1C[C@@H]1c1ccccc1

>  <REPORTED RESULT>
110

$$$$
>  <CHEMICAL SMILES>
CC(=O)NCC(=O)OCCCCCCCCCCCCNC(=O)[C@@H]1CN(C(=O)c2ccc(C(=O)N3C[C@@H](C(=O)N[C@H]4C[C@@H]4c4ccccc4)[C@H](C(=O)N[C@H]4C[C@@H]4c4ccccc4)C3)cc2)C[C@H]1C(=O)N[C@H]1C[C@@H]1c1ccccc1

>  <REPORTED RESULT>
180

$$$$
